Hey, just so you know, these numbers are from patent US20240120519A1.

Assay: Cyclic voltammetry measurements (oxidation-reduction potentials)
Type: physicochemical
Details: propylene carbonate, 0.1 M TBABF4, glassy carbon working electrode, 25° C., normalised to Fc/Fc^+
MEASURED_ENDPOINT: E°′ PC (V vs Fc/Fc^+)

CCOC(=O)COc1ccccc1-c1ccc(-c2ccccc2OCC(=O)OCC)c2nsnc12 [Compound (3)]: −1.82
CCOC(=O)CCCOc1ccc(-c2ccc(-c3ccc(OCCCC(=O)OCC)cc3OCCCC(=O)OCC)c3nsnc23)c(OCCCC(=O)OCC)c1 [Compound (7)]: −1.88
CCOC(=O)CCCOc1ccc(OCCCC(=O)OCC)c(-c2ccc(-c3cc(OCCCC(=O)OCC)ccc3OCCCC(=O)OCC)c3nsnc23)c1 [Compound (6)]: −1.83
COCCOCCOc1ccccc1-c1ccc(-c2ccccc2OCCOCCOC)c2nsnc12 [Compound (4)]: −1.85
O=S(=O)([O-])C(F)(F)F.O=S(=O)([O-])C(F)(F)F.[Cu+2] [Cu triflate, copper(II) trifluoromethanesulphonate, reference compound]: 0.43
CCOC(=O)CCCOc1cccc(OCCCC(=O)OCC)c1-c1ccc(-c2c(OCCCC(=O)OCC)cccc2OCCCC(=O)OCC)c2nsnc12 [Compound (5)]: −1.95
CCOC(=O)CCCOc1ccccc1-c1ccc(-c2ccccc2OCCCC(=O)OCC)c2nsnc12 [Compound (2)]: −1.84
